Reference source for all entries: paper PMC7481290

Test system: P. aeruginosa PA01 (H103)
Format: cell-based, Pseudomonas aeruginosa
Details: H103, 18 h
Non-standard residues stand in square brackets, D forms with d. Residues, ends and D or L forms follow the SMILES beside them. Gly(Nα-4-Cl-benzyl) = O=C(O)CNCc1ccc(Cl)cc1; N(4-Br-benzyl)Gly = O=C(O)CNCc1ccc(Br)cc1; Nphe = O=C(O)CNCc1ccccc1; Nlys = NCCCCNCC(=O)O
Could you please report measured Minimal inhibitory concentration PA^g for the items listed next?

COMPOUND	ASSAYED TARGET	Minimal inhibitory concentration PA^g
NCCCCNCC(=O)N(CC(=O)N(CCCCN)CC(=O)N(CC(=O)N(CCCCN)CC(=O)N(CC(=O)N(CCCCN)CC(=O)N(CC(=O)N(CCCCN)CC(=O)N(CC(=O)N(CCCCN)CC(=O)N(CC(N)=O)Cc1ccc(Cl)cc1)Cc1ccccc1)Cc1ccc(Cl)cc1)Cc1ccccc1)Cc1ccc(Cl)cc1)Cc1ccccc1 [Compound 34] (H-[Nlys][Nphe][Nlys][Gly(Nα-4-Cl-benzyl)][Nlys][Nphe][Nlys][Gly(Nα-4-Cl-benzyl)][Nlys][Nphe][Nlys][Gly(Nα-4-Cl-benzyl)]-NH2)	P. aeruginosa PA01 (H103)	> 512 µg/mL

As a next step, examine the compound that follows.
Minimal inhibitory concentration PA^g for NCCCCNCC(=O)N(CC(=O)N(CCCCN)CC(=O)N(CC(=O)N(CCCCN)CC(=O)N(CC(=O)N(CCCCN)CC(=O)N(CC(=O)N(CCCCN)CC(=O)N(CC(N)=O)Cc1ccc(Br)cc1)Cc1ccc(Br)cc1)Cc1ccc(Br)cc1)Cc1ccc(Br)cc1)Cc1ccc(Br)cc1 [Compound 22] (H-[Nlys][N(4-Br-benzyl)Gly][Nlys][N(4-Br-benzyl)Gly][Nlys][N(4-Br-benzyl)Gly][Nlys][N(4-Br-benzyl)Gly][Nlys][N(4-Br-benzyl)Gly]-NH2) ?
> 512 µg/mL
